Tested on: myeloid leukemia patient primary cells Pat.4
Test: cell viability (% survival relative to DMSO control); higher = less cytotoxic
Settings: 1000 nM; 72 h
Please respond with reported cell viability for every item in the list.
Enter your answer as a number in %; do not include the unit.

Exercise: Please give the measured cell viability for this compound: O=C(C1CC1)N1CC[C@@H](C=C2NNC(=O)N2c2ccc(-c3ccc4occc4c3)cc2)C1
Key: 92.1

Exercise: Please give the measured cell viability for this compound: COC(=O)[C@]12CCC(C)(C)C[C@H]1[C@H]1C(=O)C=C3[C@@]4(C)C=C(C#N)C(=O)C(C)(C)[C@@H]4CC[C@@]3(C)[C@]1(C)CC2 [Bardoxolone methyl]
Key: 70

Exercise: Please give the measured cell viability for this compound: C=C(C)[C@H]1Cc2c(ccc3c2O[C@@H]2COc4cc(OC)c(OC)cc4[C@@H]2C3=O)O1 [Rotenone]
Key: 62.3

Exercise: Please give the measured cell viability for this compound: Cc1c(-c2ccc(-c3ccccc3F)cc2)nc2ccc(F)cc2c1C(=O)O [Brequinar]
Key: 87.5

---

Tested on: HL-60
Assay: cell viability (% survival relative to DMSO control); higher = less cytotoxic
Settings: 1 µM; 72 h; co-treatment: AZD3965 100 nM
Property: cell viability (%)
Enter your answer as a number in %; do not include the unit.

Exercise: # value lookup — system HL-60, readout cell viability, item CN(C)c1cc(NC(=O)CNC(C)(C)C)c(O)c2c1C[C@H]1C[C@H]3[C@H](N(C)C)C(=O)C(C(N)=O)C(=O)[C@@]3(O)C(=O)C1C2=O (stereo partly specified)
Key: 103

Exercise: # value lookup — system HL-60, readout cell viability, item Cc1c(-c2ccc(-c3ccccc3F)cc2)nc2ccc(F)cc2c1C(=O)O
Key: 84.4

Exercise: # value lookup — system HL-60, readout cell viability, item CCCCCCCCCCCC(=O)c1c(O)c(C(=O)CCCCCCCCCCC)c(O)c(C2CC(c3ccc(O)cc3)Oc3cc(O)ccc32)c1O (stereo unspecified)
Key: 107

Exercise: # value lookup — system HL-60, readout cell viability, item CCCCC/C=C\C/C=C\C/C=C\C/C=C\CCCCN1C(=O)C=CC1=O [N-Arachidonylmaleimide]
Key: 99.6

Exercise: # value lookup — system HL-60, readout cell viability, item C=C(C=NNC(=N)N)NNC(=N)N
Key: 93.1

Exercise: # value lookup — system HL-60, readout cell viability, item CCCc1cc(-c2nc(-c3ccc(C)cc3)cs2)ccn1
Key: 103

---

Please respond with reported cell viability for every item in the list.
Tested on: HL-60
Assay: cell viability (% survival relative to DMSO control); higher = less cytotoxic
Settings: 0.001 µM; 72 h; co-treatment: GSK2194069 100 nM
Enter your answer as a number in %; do not include the unit.

Exercise: Please give the measured cell viability for this compound: CN(C)c1cc(NC(=O)CNC(C)(C)C)c(O)c2c1C[C@H]1C[C@H]3[C@H](N(C)C)C(=O)C(C(N)=O)C(=O)[C@@]3(O)C(=O)C1C2=O (some centres undefined)
Key: 102

Exercise: Please give the measured cell viability for this compound: COC(=O)[C@]12CCC(C)(C)C[C@H]1[C@H]1C(=O)C=C3[C@@]4(C)C=C(C#N)C(=O)C(C)(C)[C@@H]4CC[C@@]3(C)[C@]1(C)CC2
Key: 100

Exercise: Please give the measured cell viability for this compound: CC1(C)[C@@H](O[C@H]2O[C@H](C(=O)O)[C@@H](O)[C@H](O)[C@H]2O[C@@H]2O[C@H](C(=O)O)[C@@H](O)[C@H](O)[C@H]2O)CC[C@]2(C)[C@H]3C(=O)C=C4[C@@H]5C[C@@](C)(C(=O)O)CC[C@]5(C)CC[C@@]4(C)[C@]3(C)CC[C@@H]12
Key: 102

Exercise: Please give the measured cell viability for this compound: CC[C@@]1(O)C(=O)OCc2c1cc1n(c2=O)Cc2cc3c(CN(C)C)c(O)ccc3nc2-1
Key: 91.1

Exercise: Please give the measured cell viability for this compound: O=C(O)Cn1nnc(-c2cc(N3CCC(Oc4cc(F)ccc4Br)CC3)no2)n1
Key: 96.6

Exercise: Please give the measured cell viability for this compound: COc1cc(/C=C/C(=O)N2CCC=CC2=O)cc(OC)c1OC
Key: 101

Exercise: Please give the measured cell viability for this compound: CC(C)c1onc(-c2c(Cl)cccc2Cl)c1COc1ccc(/C=C/c2cccc(C(=O)O)c2)c(Cl)c1
Key: 99.3

Exercise: Please give the measured cell viability for this compound: CCCCN1C[C@H](O)[C@@H](O)[C@H](O)[C@H]1CO
Key: 91.5

Exercise: Please give the measured cell viability for this compound: C[C@](N)(Cc1ccc(O)cc1)C(=O)O
Key: 105

Exercise: Please give the measured cell viability for this compound: CCN(CC)CCCC(C)Nc1ccnc2cc(Cl)ccc12 (centres undefined)
Key: 102

Exercise: Please give the measured cell viability for this compound: CC(C)c1cc2c(c(O)c1O)[C@@]1(C(=O)O)CCCC(C)(C)[C@@H]1CC2
Key: 101

Exercise: Please give the measured cell viability for this compound: CC[C@H](C)C(=O)O[C@H]1C[C@@H](C)C=C2C=C[C@H](C)[C@H](CC[C@@H]3C[C@@H](O)CC(=O)O3)[C@H]21
Key: 104

Exercise: Please give the measured cell viability for this compound: O=C(NCCCCCCNC(=O)ONC1=CCCCC1)ONC1=CCCCC1
Key: 99.1

Exercise: Please give the measured cell viability for this compound: C=C(C)[C@H]1Cc2c(ccc3c2O[C@@H]2COc4cc(OC)c(OC)cc4[C@@H]2C3=O)O1
Key: 86.2

---

System: HL-60
Assay: cell viability (% survival relative to DMSO control); higher = less cytotoxic
Conditions: 0.001 µM; 72 h; co-treatment: GSK2194069 100 nM
Property: cell viability (%)
Enter your answer as a number in %; do not include the unit.

Exercise: # value lookup — system HL-60, readout cell viability, item NCCCC(N)(C(=O)O)C(F)F (configuration not stated) [Difluoromethylornithine]
Key: 101

Exercise: # value lookup — system HL-60, readout cell viability, item O=C(C1CC1)N1CC[C@@H](C=C2NNC(=O)N2c2ccc(-c3ccc4occc4c3)cc2)C1
Key: 96.3

Exercise: # value lookup — system HL-60, readout cell viability, item O=C1O[C@H]([C@@H](O)CO)C(O)=C1O [Vitamin C (ascorbate)]
Key: 88.6

Exercise: # value lookup — system HL-60, readout cell viability, item Cc1coc2c1C(=O)C(=O)c1c-2ccc2c1CCCC2(C)C [Tanshinone IIA]
Key: 107

Exercise: # value lookup — system HL-60, readout cell viability, item COc1ccc(S(=O)(=O)N2CCN(S(=O)(=O)c3ccc4c(c3)OCCO4)CC2)cc1 [BML283]
Key: 99.2

Exercise: # value lookup — system HL-60, readout cell viability, item Cc1cn([C@H]2C[C@H](O)[C@@H](COP(=O)(O)OP(=O)(O)O)O2)c(=O)[nH]c1=O [Thymidine diphosphate]
Key: 105

Exercise: # value lookup — system HL-60, readout cell viability, item O=C(O)C[C@@]1(O)C[C@@H](CCCCCCc2ccc(Cl)cc2Cl)OC1=O
Key: 108

---

System: KG-1
Assay: cell viability (% survival relative to DMSO control, bortezomib = 0%); higher = less cytotoxic
Settings: 1 nM; 72 h
Property: cell viability
# do not omit the unit; it follows the number

Exercise: Please give the measured cell viability for this compound: Cl.NC(CCC(=O)Nc1ccc([N+](=O)[O-])cc1)C(=O)O (centres undefined)
Key: 112%

Exercise: Please give the measured cell viability for this compound: O=C(O)C[C@@]1(O)C[C@@H](CCCCCCc2ccc(Cl)cc2Cl)OC1=O
Key: 100%

Exercise: Please give the measured cell viability for this compound: COc1ccc(-c2ccccc2)cc1NS(=O)(=O)c1cc(Cl)cc(Cl)c1O
Key: 98.1%

Exercise: Please give the measured cell viability for this compound: O[C@H]1[C@H]2[C@H](O)CCCN2C[C@H]1O
Key: 108%

Exercise: Please give the measured cell viability for this compound: O=C(O)c1cc(Cl)cc(Cl)c1O
Key: 107%

Exercise: Please give the measured cell viability for this compound: O=C(O)Cn1nnc(-c2cc(N3CCC(Oc4cc(F)ccc4Br)CC3)no2)n1
Key: 105%

Exercise: Please give the measured cell viability for this compound: CCN(CC)CCCC(C)Nc1ccnc2cc(Cl)ccc12 (centres undefined)
Key: 112%

Exercise: Please give the measured cell viability for this compound: O=C1O/C(=C/Br)CCC1c1cccc2ccccc12 (centres undefined)
Key: 97.7%

Exercise: Please give the measured cell viability for this compound: COc1ccc(S(=O)(=O)N2CCN(S(=O)(=O)c3ccc4c(c3)OCCO4)CC2)cc1
Key: 92.7%

Exercise: Please give the measured cell viability for this compound: O=C(NNc1ccccc1)c1ccncc1
Key: 88.5%

Exercise: Please give the measured cell viability for this compound: Nc1nc(Cl)nc2c1ncn2[C@H]1C[C@H](O)[C@@H](CO)O1
Key: 101%

Exercise: Please give the measured cell viability for this compound: COC(=O)[C@]12CCC(C)(C)C[C@H]1[C@H]1C(=O)C=C3[C@@]4(C)C=C(C#N)C(=O)C(C)(C)[C@@H]4CC[C@@]3(C)[C@]1(C)CC2
Key: 96.6%

Exercise: Please give the measured cell viability for this compound: C[C@](N)(Cc1ccc(O)cc1)C(=O)O
Key: 105%

Exercise: Please give the measured cell viability for this compound: C=C(C=NNC(=N)N)NNC(=N)N
Key: 94.9%

Exercise: Please give the measured cell viability for this compound: CCC(=O)N1CCN(c2ccc(-n3c(=O)ccc4cnc5ccc(-c6cnc7ccccc7c6)cc5c43)cc2C(F)(F)F)CC1
Key: 94.9%

Exercise: Please give the measured cell viability for this compound: CC1(C)[C@@H](O[C@H]2O[C@H](C(=O)O)[C@@H](O)[C@H](O)[C@H]2O[C@@H]2O[C@H](C(=O)O)[C@@H](O)[C@H](O)[C@H]2O)CC[C@]2(C)[C@H]3C(=O)C=C4[C@@H]5C[C@@](C)(C(=O)O)CC[C@]5(C)CC[C@@]4(C)[C@]3(C)CC[C@@H]12
Key: 90%

Exercise: Please give the measured cell viability for this compound: O=C(C1CC1)N1CC[C@@H](C=C2NNC(=O)N2c2ccc(-c3ccc4occc4c3)cc2)C1
Key: 95.4%

Exercise: Please give the measured cell viability for this compound: C[C@H](NC(=O)c1sccc1OCc1ccc(Cl)cc1)c1ccccc1
Key: 94%

Exercise: Please give the measured cell viability for this compound: COc1cc(/C=C/C(=O)N2CCC=CC2=O)cc(OC)c1OC
Key: 98.4%
